- target entity: HDAC3 (Homo sapiens, UniProt O15379)
- Construct: endogenous in cells; host or cells: HCT116
- Sequence (O15379 whole entry): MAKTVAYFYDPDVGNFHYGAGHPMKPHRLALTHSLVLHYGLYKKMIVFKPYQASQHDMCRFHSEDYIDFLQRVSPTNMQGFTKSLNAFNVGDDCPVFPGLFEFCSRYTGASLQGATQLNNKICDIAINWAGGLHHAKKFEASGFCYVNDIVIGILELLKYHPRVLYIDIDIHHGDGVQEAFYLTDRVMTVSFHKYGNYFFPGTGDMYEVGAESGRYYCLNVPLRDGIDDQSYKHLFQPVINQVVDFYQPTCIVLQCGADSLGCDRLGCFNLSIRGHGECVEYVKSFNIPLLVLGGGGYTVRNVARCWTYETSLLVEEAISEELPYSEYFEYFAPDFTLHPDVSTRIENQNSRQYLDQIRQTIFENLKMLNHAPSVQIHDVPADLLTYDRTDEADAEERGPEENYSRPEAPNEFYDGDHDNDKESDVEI
- method description: HDAC3 degradation in HCT116 cells, quantitative western blot
- Assay type: cell-based
- measurement parameters: HCT-116, 24 h; HCT116, screened at 0.1, 1 and 10 μM; maximum degradation irrespective of concentration; read-out: HDAC 3 degrader (% Degradation)
experimental readout: Dmax (%)

[I] Cc1ncsc1-c1ccc(CNC(=O)[C@@H]2C[C@@H](O)CN2C(=O)[C@@H](NC(=O)COCCCCCCOCC(=O)Nc2ccc(C(=O)Nc3ccccc3N)cc2)C(C)(C)C)cc1
[II] Cc1ncsc1-c1ccc(CNC(=O)[C@@H]2C[C@@H](O)CN2C(=O)[C@@H](NC(=O)COCCCCCCCCCOCC(=O)Nc2ccc(C(=O)Nc3ccc(F)cc3N)cc2)C(C)(C)C)cc1
[III] Cc1ncsc1-c1ccc(CNC(=O)[C@@H]2C[C@@H](O)CN2C(=O)[C@@H](NC(=O)CCCCCCCCCCC(=O)Nc2ccc(C(=O)Nc3ccc(F)cc3N)cc2)C(C)(C)C)cc1
Exam item: Order the 3 listed items from lowest to highest according to Dmax. Give the labels in the order requested.
Marked response: I, III, II
(I: 32%, III: 46%, II: 67%)

[P] CC(=O)N[C@H](C(=O)N1C[C@H](O)C[C@H]1C(=O)NCc1ccc(-c2scnc2C)cc1OCCCCCCCCCCCC(=O)Nc1ccc(C(=O)Nc2ccccc2N)cc1)C(C)(C)C
[Q] Cc1ncsc1-c1ccc(CNC(=O)[C@@H]2C[C@@H](O)CN2C(=O)[C@@H](NC(=O)COCCCCCCCCC(=O)Nc2ccc(C(=O)Nc3ccccc3N)cc2)C(C)(C)C)cc1
Exam item: Which shows the larger Dmax value: P or Q ? Indicate your choice by writing its label.
Marked response: Q
(Q: 69%, P: 38%)
